test: Aqueous solubility of the compound; format: physicochemical; conditions: water
measured quantity: solubility
Please give the number followed by its unit.

Input: Record request: solubility value, item COc1ccc(OC)c(Sc2ccccc2/C=N/NC(=N)N)c1.Cl
Output: 10000 µg/mL
